Hey, just so you know, these numbers are from patent US20240182561A1.

Molecular target: T1, nanodisc embedded human CACNG1 expressed with a C-terminal PADRE-Flag-His tag (human, UniProt Q06432 1-222)
T1 construct: Captured on an anti-His Biacore surface; also called human CACNG1 nanodisc; CACNG1 nanodisc; not shown: C-terminal tag
T1 sequence (Q06432 whole entry): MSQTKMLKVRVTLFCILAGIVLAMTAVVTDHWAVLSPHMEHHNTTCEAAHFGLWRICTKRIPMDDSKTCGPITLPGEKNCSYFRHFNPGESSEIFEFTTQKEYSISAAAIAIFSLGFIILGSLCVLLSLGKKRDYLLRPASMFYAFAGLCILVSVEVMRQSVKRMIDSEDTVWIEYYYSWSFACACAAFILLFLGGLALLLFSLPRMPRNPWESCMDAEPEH
Experiment: SPR, anti-His-captured nanodisc, 25 C
Field: koff. Provide a value for each of the binders that follow.
One number for each entry, in s⁻¹.

For orientation, consider the following solved cases.
binder	koff, s⁻¹
REGN9909 (antibody, mouse IgG2a, kappa, V domains shown, mIgG2a) VH: EVQLLESGGGLVQPGGSLRLSCAASGFTFNNYGMSWVRQGPGKGLEWVSSISGSGGTTFYADSVKGRFTISRDNSKNTLYLQMNSLRAEDTAVYYCGKGGYCSSSGCRHYGMDVWGQGTTVTVSS VL: QSVLTQPPSASGTPGQRVTISCSGSSSNIGNNYIYWYQRLPGTTPKLLIYRNNQRPSGVPDRFSGSKSGTSASLAISGLRSEDEADYYCAAWDDTLSGYVFGTGTKVTVLR	0.00137
REGN10712 (antibody, human IgG4 S228P, lambda, V domains shown, hIgG4) VH: QVQLVESGGGVVQPGRSLRLSCAASGFTFSTYGMYWVRQTPGKGLEWVTVISFDGNKKYYADSVKGRFTISRDNSKNTLFLQMNSLKTEDTAVYYCAKSSNWNYGSFDIWGQGTMVTVSS VL: QSVLTQPPSVSGAPGQRVTISCTGSSSNIGAGYDVHWYQQLPGTAPRLLISYNSNRPSGVPDRFSGSKSGTSASLAITGLQAEDEADYYCQSYDRSLSGSVFGGGTQLTVLG	0.00332

Using the record for REGN7660 (antibody, human IgG4 S228P, kappa, V domains shown, hIgG4) VH: EVQLVESGGGLVQPGGSLKLSCTASGLTLSDSAMHWVRQASGKGLEWVGRIRNKANRYATEYAASVKGRFTISRDDSKNTAYLQMNSLKTEDTAVYYCTRNWKIFLFDYWGQGTLVTVSS VL: EIVLTQSPGTLTLSPGERATLSCRASQSVGSKYLAWFQQKRGQAPRLLIYGASSRTSGIPDRISGSGSGTDFTLTISRLEPEDFAVYYCQQYGSSPWTFGQGTKVEIKR , report its koff.
0.0243
